Biological target: Toll-like receptor 7/8 (Canis lupus familiaris) (UniProt A1XC23+H6BA89)
Assay: Agonist activity at TLR7/8 in dog PBMC assessed as IL-6 secretion at 20 uM after 29 hrs by ELISA (reference value: 310 +/- 90 pg/ml)
Format: cell-based
RECORDED METRIC: Activity (pg/mL)

Guide cases for Activity, answers given:
1) CC(C)Cn1cnc2c(N)nc3ccccc3c21 [IMIQUIMOD]: 300
2) CCOCc1nc2c(N)nc3cc(Cl)ccc3c2n1CC(C)C: 280
3) CCOCc1nc2c(N)nc3cc(Cl)ccc3c2n1CC(C)(C)O: 320

(A) CCOCc1nc2c(N)nc3cc(C#N)ccc3c2n1CC(C)C
(B) CCCCc1nc2c(N)nc3cc(Cl)ccc3c2n1CC(C)(C)O
(C) CCOCc1nc2c(N)nc3ccccc3c2n1CC(C)(C)O [RESIQUIMOD]
query: Arrange by Activity, high to low. # the answer lists labels in the order requested
result: C, B, A
(C: 380 pg/mL, B: 230 pg/mL, A: 71 pg/mL)

(A) CCCCc1nc2c(N)nc3cc(Cl)ccc3c2n1CC(C)C
(B) CCCCc1nc2c(N)nc3cc(OC)ccc3c2n1CC(C)C
(C) CCCCc1nc2c(N)nc3cc(C#N)ccc3c2n1CC(C)C
query: Arrange by Activity, high to low. # the answer lists labels in the order requested
result: B, C, A
